# study-system: HLA-A*02:16
# method: IEDB peptide-MHC binding, purified MHC/direct/fluorescence; filed as Kd, often an IC50 or EC50 that approximates it; bounds were set here for any values at or beyond the usual limits of such assays
# run-parameters: source organism: Orthohantavirus sangassouense
pKd: −log10 of the molar value.
result-type: pKd

1. SPGDNSAKF :: ≤ 4.70

From here, focus on the item given below.
get_value(item= MRNTIMASK , readout=pKd) returns ≤ 4.70

---

# study-system: HLA-B*46:01
# method: IEDB peptide-MHC binding, purified MHC/competitive/fluorescence; filed as Kd, often an IC50 or EC50 that approximates it; bounds were set here for any values at or beyond the usual limits of such assays
# run-parameters: source organism: Homo sapiens
result-type: Kd

get_value(item= SVDSDHLGY , readout=Kd) returns ≥ 20 µM

---

# study-system: HLA-A*31:01
# method: IEDB peptide-MHC binding, purified MHC/competitive/radioactivity; filed as Kd, often an IC50 or EC50 that approximates it; bounds were set here for any values at or beyond the usual limits of such assays
# run-parameters: source organism: Dengue virus 2 Jamaica/1409/1983
result-type: pKd
When answering, recall that pKd equals minus log10 of the concentration in mol/L, and write that number alone.

1. QMWTLMYFHR :: 8.73

From here, focus on the item given below.
get_value(item= LTYQNKVVR , readout=pKd) returns 7.95

---

# study-system: HLA-B*58:01
# method: IEDB peptide-MHC binding, purified MHC/competitive/radioactivity; filed as Kd, often an IC50 or EC50 that approximates it; bounds were set here for any values at or beyond the usual limits of such assays
# run-parameters: source organism: Dengue virus 1 Brazil/97-11/1997
result-type: Kd (nM)
State the answer as a number, implicitly in nM.

get_value(item= KQIQKVETW , readout=Kd) returns 4.77

---

# study-system: HLA-A*03:01
# method: IEDB peptide-MHC binding, purified MHC/direct/fluorescence; filed as Kd, often an IC50 or EC50 that approximates it; bounds were set here for any values at or beyond the usual limits of such assays
# run-parameters: source organism: Mycoplasmoides genitalium
result-type: Kd (nM)
State the answer as a number, implicitly in nM.

get_value(item= YSDIPRLKK , readout=Kd) returns 372

---

# study-system: HLA-A*01:01
# method: IEDB peptide-MHC binding, purified MHC/direct/fluorescence; filed as Kd, often an IC50 or EC50 that approximates it; bounds were set here for any values at or beyond the usual limits of such assays
# run-parameters: source organism: Mus musculus
result-type: Kd
Quick note: number first, unit second.

get_value(item= SVDSDHLGY , readout=Kd) returns 0.7 nM

---

# study-system: HLA-B*40:02
# method: IEDB peptide-MHC binding, purified MHC/competitive/radioactivity; filed as Kd, often an IC50 or EC50 that approximates it; bounds were set here for any values at or beyond the usual limits of such assays
# run-parameters: source organism: Mammarenavirus lassaense
# pKd listing for each entry below
When answering, recall that pKd equals minus log10 of the concentration in mol/L, and write that number alone.

1. REAYCQEFSL :: 8.87

get_value(item= REPAGLGSM , readout=pKd) returns 7.07

get_value(item= YDQMKCKSL , readout=pKd) returns 5.49

---

# study-system: HLA-A*23:01
# method: IEDB peptide-MHC binding, purified MHC/competitive/radioactivity; filed as Kd, often an IC50 or EC50 that approximates it; bounds were set here for any values at or beyond the usual limits of such assays
# run-parameters: source organism: Dengue virus 1 Nauru/West Pac/1974
result-type: pKd
When answering, recall that pKd equals minus log10 of the concentration in mol/L, and write that number alone.

get_value(item= MFLITENKI , readout=pKd) returns 6.79

---

# Kd listing for each entry below
# study-system: HLA-A*30:02
# method: IEDB peptide-MHC binding, purified MHC/competitive/radioactivity; filed as Kd, often an IC50 or EC50 that approximates it; bounds were set here for any values at or beyond the usual limits of such assays
# run-parameters: source organism: Mammarenavirus brazilense
State the answer as a number, implicitly in nM.

1) ESAQPGLLSY :: 1690

get_value(item= GSLLHGLWPY , readout=Kd) returns 40.4

---

# study-system: HLA-A*26:01
# method: IEDB peptide-MHC binding, purified MHC/competitive/fluorescence; filed as Kd, often an IC50 or EC50 that approximates it; bounds were set here for any values at or beyond the usual limits of such assays
# run-parameters: source organism: Vibrio parahaemolyticus AQ3810
pKd: −log10 of the molar value.
result-type: pKd

Readout pKd for MLTNASGHA , test system HLA-A*26:01, was ≤ 4.70

---

# study-system: HLA-B*15:03
# method: IEDB peptide-MHC binding, purified MHC/competitive/radioactivity; filed as Kd, often an IC50 or EC50 that approximates it; bounds were set here for any values at or beyond the usual limits of such assays
# run-parameters: source organism: Vaccinia virus Copenhagen
result-type: Kd (nM)
State the answer as a number, implicitly in nM.

Readout Kd for IIFMNLYSF , test system HLA-B*15:03, was 10.7

---

# study-system: HLA-B*18:01
# method: IEDB peptide-MHC binding, purified MHC/competitive/fluorescence; filed as Kd, often an IC50 or EC50 that approximates it; bounds were set here for any values at or beyond the usual limits of such assays
# run-parameters: source organism: Entamoeba histolytica HM-1:IMSS
result-type: Kd

get_value(item= TLPGCLIIL , readout=Kd) returns ≥ 20 µM

---

# study-system: HLA-A*68:01
# method: IEDB peptide-MHC binding, purified MHC/competitive/radioactivity; filed as Kd, often an IC50 or EC50 that approximates it; bounds were set here for any values at or beyond the usual limits of such assays
# run-parameters: source organism: Dengue virus 2 Jamaica/1409/1983
result-type: pKd
When answering, recall that pKd equals minus log10 of the concentration in mol/L, and write that number alone.

1) LTVCYVLTGR :: 8.19

get_value(item= FTDPASIAAR , readout=pKd) returns 7.59

get_value(item= FTNMEAQLIR , readout=pKd) returns 7.71

get_value(item= LTYQNKVVR , readout=pKd) returns 7.34

---

# study-system: HLA-B*07:02
# method: IEDB peptide-MHC binding, purified MHC/competitive/fluorescence; filed as Kd, often an IC50 or EC50 that approximates it; bounds were set here for any values at or beyond the usual limits of such assays
# run-parameters: source organism: Vibrio vulnificus CMCP6
pKd: −log10 of the molar value.
result-type: pKd

get_value(item= KQIVIINPM , readout=pKd) returns ≤ 5.30

---

# study-system: HLA-C*05:01
# method: IEDB peptide-MHC binding, purified MHC/direct/fluorescence; filed as Kd, often an IC50 or EC50 that approximates it; bounds were set here for any values at or beyond the usual limits of such assays
# run-parameters: source organism: human gammaherpesvirus 4
result-type: Kd (µM)
State the answer as a number, implicitly in µM.

get_value(item= FTASVSTVV , readout=Kd) returns 3.95

---

# study-system: HLA-A*29:02
# method: IEDB peptide-MHC binding, purified MHC/direct/fluorescence; filed as Kd, often an IC50 or EC50 that approximates it; bounds were set here for any values at or beyond the usual limits of such assays
# run-parameters: source organism: Mycobacterium avium 104
pKd: −log10 of the molar value.
result-type: pKd

Readout pKd for IAHVRDVVM , test system HLA-A*29:02, was ≤ 4.70

---

# Kd listing for each entry below
# study-system: HLA-C*03:03
# method: IEDB peptide-MHC binding, purified MHC/direct/fluorescence; filed as Kd, often an IC50 or EC50 that approximates it; bounds were set here for any values at or beyond the usual limits of such assays
# run-parameters: source organism: Mycobacterium tuberculosis C

1. RMAATAQVL :: 12 nM

get_value(item= YLPDPTVGV , readout=Kd) returns ≥ 20000 nM

---

# study-system: HLA-B*57:01
# method: IEDB peptide-MHC binding, purified MHC/competitive/fluorescence; filed as Kd, often an IC50 or EC50 that approximates it; bounds were set here for any values at or beyond the usual limits of such assays
# run-parameters: source organism: Orthohantavirus dobravaense
pKd: −log10 of the molar value.
result-type: pKd

Readout pKd for MRNTIMASK , test system HLA-B*57:01, was ≤ 4.70

---

# study-system: HLA-B*46:01
# method: IEDB peptide-MHC binding, purified MHC/direct/fluorescence; filed as Kd, often an IC50 or EC50 that approximates it; bounds were set here for any values at or beyond the usual limits of such assays
# run-parameters: source organism: Mycobacterium tuberculosis variant bovis
pKd: −log10 of the molar value.
result-type: pKd

Readout pKd for HQAIISDVL , test system HLA-B*46:01, was ≤ 4.70

---

# study-system: HLA-A*03:01
# method: IEDB peptide-MHC binding, purified MHC/competitive/radioactivity; filed as Kd, often an IC50 or EC50 that approximates it; bounds were set here for any values at or beyond the usual limits of such assays
# run-parameters: source organism: Mammarenavirus machupoense
pKd: −log10 of the molar value.
result-type: pKd

Readout pKd for TAVAKCNQNH , test system HLA-A*03:01, was ≤ 4.15
